# test-details: Zinc chelation-dependent inhibition of NDM-1 (unknown origin) expressed in Escherichia coli BL21 (DE3) using meropenem as substrate preincubated with enzyme for 5 to 10 mins followed by substrate addition
pIC50: −log10 of the molar value.

>  <structure-smiles>
O=C(O)c1cccc(CN(CCP(=O)(O)O)Cc2cccc(C(=O)O)n2)n1

>  <pIC50>
5.78

$$$$
>  <structure-smiles>
O=C(O)CN(CCN(CC(=O)O)CC(=O)O)CC(=O)O

>  <pIC50>
5.76

$$$$
>  <structure-smiles>
C[C@@H](C(=O)O)N(Cc1cccc(C(=O)O)n1)Cc1cccc(C(=O)O)n1

>  <pIC50>
5.77

$$$$
>  <structure-smiles>
C[C@H](C(=O)O)N(Cc1cccc(C(=O)O)n1)Cc1cccc(C(=O)O)n1

>  <pIC50>
5.80

$$$$
>  <structure-smiles>
N[C@@H](CN[C@@H](CN[C@@H](CC(=O)O)C(=O)O)C(=O)O)C(=O)O

>  <pIC50>
5.40

$$$$
>  <structure-smiles>
O=C(O)CN(Cc1cccc(C(=O)O)n1)Cc1cccc(C(=O)O)n1

>  <pIC50>
5.78

$$$$
>  <structure-smiles>
O=C(O)c1cccc(CNCc2cccc(C(=O)O)n2)n1

>  <pIC50>
5.81

$$$$

----------
# test-details: Zinc chelation-dependent inhibition of NDM-1 (unknown origin) expressed in Escherichia coli DH5 alpha using meropenem as substrate preincubated with enzyme for 5 mins followed by substrate addition in the presence of zinc sulfate
Active and inactive are the calls of the source. The rule behind the calls is not given here.
Outcomes: active, inactive

>  <structure-smiles>
O=C(O)CN(CCN(CC(=O)O)CC(=O)O)CC(=O)O

>  <label-class>
inactive

$$$$
>  <structure-smiles>
C[C@@H](C(=O)O)N(Cc1cccc(C(=O)O)n1)Cc1cccc(C(=O)O)n1

>  <label-class>
inactive

$$$$
>  <structure-smiles>
C[C@H](CS)C(=O)N1CCC[C@H]1C(=O)O

>  <label-class>
active

$$$$
>  <structure-smiles>
C[C@H](C(=O)O)N(Cc1cccc(C(=O)O)n1)Cc1cccc(C(=O)O)n1

>  <label-class>
inactive

$$$$

----------
# test-details: Zinc chelation-dependent inhibition of VIM-2 (unknown origin) expressed in Escherichia coli DH5 alpha using nitrocefin as substrate preincubated with enzyme for 5 mins followed by substrate addition in presence of zinc sulfate
Calls of active or inactive are those of the source. No cut-off for these calls is given here.
Possible outcomes: active, inactive

>  <structure-smiles>
O=C(O)CN(CCN(CC(=O)O)CC(=O)O)CC(=O)O

>  <label-class>
inactive

$$$$
>  <structure-smiles>
C[C@H](CS)C(=O)N1CCC[C@H]1C(=O)O

>  <label-class>
active

$$$$
>  <structure-smiles>
C[C@@H](C(=O)O)N(Cc1cccc(C(=O)O)n1)Cc1cccc(C(=O)O)n1

>  <label-class>
inactive

$$$$
>  <structure-smiles>
C[C@H](C(=O)O)N(Cc1cccc(C(=O)O)n1)Cc1cccc(C(=O)O)n1

>  <label-class>
inactive

$$$$

----------
# test-details: Zinc chelation-dependent inhibition of IMP-1 (unknown origin) expressed in Escherichia coli DH5 alpha using imipenem as substrate preincubated with enzyme for 5 mins followed by substrate addition in the presence of zinc sulfate
The source made the active and inactive calls. The calls are words filed in the database; no cut-off is given here.
Outcomes: yes (1) (active), no (0) (inactive)

>  <structure-smiles>
C[C@H](C(=O)O)N(Cc1cccc(C(=O)O)n1)Cc1cccc(C(=O)O)n1

>  <label-class>
no (0)

$$$$
>  <structure-smiles>
C[C@@H](C(=O)O)N(Cc1cccc(C(=O)O)n1)Cc1cccc(C(=O)O)n1

>  <label-class>
no (0)

$$$$
>  <structure-smiles>
C[C@H](CS)C(=O)N1CCC[C@H]1C(=O)O

>  <label-class>
yes (1)

$$$$
>  <structure-smiles>
O=C(O)CN(CCN(CC(=O)O)CC(=O)O)CC(=O)O

>  <label-class>
no (0)

$$$$

----------
# test-details: Toxicity in sheep RBC assessed as induction of hemolysis at 1024 microg/ml measured after 1 hr relative to control
# Type: tissue-based, Ovis aries, Erythrocyte
# test-context: sheep red blood cells, at 1024 µg/mL, read-out: Activity
hemolysis at 1 h, 1024 microg/ml reference
observation-type: hemolysis at 1 h, 1024 microg/ml

>  <structure-smiles>
C[C@H](C(=O)O)N(Cc1cccc(C(=O)O)n1)Cc1cccc(C(=O)O)n1

>  <observation-type>
hemolysis at 1 h, 1024 microg/ml

>  <measured>
< 7%

$$$$
>  <structure-smiles>
C[C@@H](C(=O)O)N(Cc1cccc(C(=O)O)n1)Cc1cccc(C(=O)O)n1

>  <observation-type>
hemolysis at 1 h, 1024 microg/ml

>  <measured>
< 7%

$$$$
